pKd values, listed per item
# experimental.system: T1, hCTLA4-His-BAP (human CTLA4 extracellular region with C-terminal His-tag and BAP-tag) (human, biotin on the BAP-tag)
# T1 construct: also called hCTLA4-His-Biotin
# T1 sequence (chain, as listed by the source limits assumed): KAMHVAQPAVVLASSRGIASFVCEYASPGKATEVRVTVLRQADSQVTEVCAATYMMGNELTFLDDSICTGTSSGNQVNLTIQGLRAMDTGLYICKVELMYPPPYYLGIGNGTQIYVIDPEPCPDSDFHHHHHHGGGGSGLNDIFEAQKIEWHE
# experimental.details: SPR 37C, ATP 10 µM; ATP 10 µM
Quick note: pKd values are minus log10 of concentrations in mol/L.

>>> result_value("04H1077-G1m/04L1086-lam1 (antibody, human IgG1, lambda, V domains shown) VH: EVQLVESGGDLVKPGGGLRLSCAASGFTFSSRTMNWVRQAPGKGLEWVSSISTRSGYIYYAESVKGRFTISRDNAKNSLYLQMNSLRAEDTAVYYCARYGKREDMLWVFDYWGQGTLVTVSS VL: QSALTQPPSASGSPGQTVTISCDGPSTGVGDYNYVHWYQQHPGKAPKLMIYFTSKKPSGVPDRFSGSKSGNTASLTVSGLQAEDEADYFCQTYAAPLGPMFGGGTKLTVLG")
6.16

What pKd value was documented for this binder, 04H1208-G1m/04L1086-lam1 (antibody, human IgG1, lambda, V domains shown) VH: EVQLVESGGGLVKPGGSLRLSCAASGFTFSSKTMNWVRQAPGKGLEWVSSISTRSGYIYYARSVKGRFTISRDNAKNSLYLQMNSLRAEDTAVYYCARYGKREDMLWVFDYWGQGTLVTVSS VL: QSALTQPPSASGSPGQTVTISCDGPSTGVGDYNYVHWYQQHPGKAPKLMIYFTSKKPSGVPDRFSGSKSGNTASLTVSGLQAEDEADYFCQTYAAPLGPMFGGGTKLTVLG ?
6.35

Any idea what its pKd is? The binder is 04H1077-G1m/04L1041-lam1 (antibody, human IgG1, lambda, V domains shown) VH: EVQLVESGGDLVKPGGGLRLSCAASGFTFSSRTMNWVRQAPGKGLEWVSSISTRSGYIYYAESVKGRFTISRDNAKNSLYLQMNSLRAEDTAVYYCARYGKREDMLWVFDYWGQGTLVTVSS VL: QSALTQPPSASGSPGQTVTISCDGPSTDVGDYNYVHWYQQHPGKAPKLMIYFTSKKPSGVPDRFSGSKSGNTASLTVSGLQAEDEADYFCSTYAAPLGPMFGGGTKLTVLG
6.14

Can you share its pKd? I mean this binder: 04H1077-G1m/04L1067-lam1 (antibody, human IgG1, lambda, V domains shown) VH: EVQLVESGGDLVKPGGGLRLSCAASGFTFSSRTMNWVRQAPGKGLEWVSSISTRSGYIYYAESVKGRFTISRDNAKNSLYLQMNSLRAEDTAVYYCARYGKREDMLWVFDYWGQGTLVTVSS VL: QSALTQPPSASGSPGQTVTISCDGPSTGVGDYNYVHWYQQHPGKAPKLMIYFTSKKPSGVPDRFSGSKSGNTASLTVSGLQAEDEADYFCSTYAAPLGPMFGGGTKLTVLG
6.40
